Target: human ether-à-go-go-related gene (hERG) potassium channel (human, UniProt Q12809)
Sequence (Q12809 whole entry, looked up): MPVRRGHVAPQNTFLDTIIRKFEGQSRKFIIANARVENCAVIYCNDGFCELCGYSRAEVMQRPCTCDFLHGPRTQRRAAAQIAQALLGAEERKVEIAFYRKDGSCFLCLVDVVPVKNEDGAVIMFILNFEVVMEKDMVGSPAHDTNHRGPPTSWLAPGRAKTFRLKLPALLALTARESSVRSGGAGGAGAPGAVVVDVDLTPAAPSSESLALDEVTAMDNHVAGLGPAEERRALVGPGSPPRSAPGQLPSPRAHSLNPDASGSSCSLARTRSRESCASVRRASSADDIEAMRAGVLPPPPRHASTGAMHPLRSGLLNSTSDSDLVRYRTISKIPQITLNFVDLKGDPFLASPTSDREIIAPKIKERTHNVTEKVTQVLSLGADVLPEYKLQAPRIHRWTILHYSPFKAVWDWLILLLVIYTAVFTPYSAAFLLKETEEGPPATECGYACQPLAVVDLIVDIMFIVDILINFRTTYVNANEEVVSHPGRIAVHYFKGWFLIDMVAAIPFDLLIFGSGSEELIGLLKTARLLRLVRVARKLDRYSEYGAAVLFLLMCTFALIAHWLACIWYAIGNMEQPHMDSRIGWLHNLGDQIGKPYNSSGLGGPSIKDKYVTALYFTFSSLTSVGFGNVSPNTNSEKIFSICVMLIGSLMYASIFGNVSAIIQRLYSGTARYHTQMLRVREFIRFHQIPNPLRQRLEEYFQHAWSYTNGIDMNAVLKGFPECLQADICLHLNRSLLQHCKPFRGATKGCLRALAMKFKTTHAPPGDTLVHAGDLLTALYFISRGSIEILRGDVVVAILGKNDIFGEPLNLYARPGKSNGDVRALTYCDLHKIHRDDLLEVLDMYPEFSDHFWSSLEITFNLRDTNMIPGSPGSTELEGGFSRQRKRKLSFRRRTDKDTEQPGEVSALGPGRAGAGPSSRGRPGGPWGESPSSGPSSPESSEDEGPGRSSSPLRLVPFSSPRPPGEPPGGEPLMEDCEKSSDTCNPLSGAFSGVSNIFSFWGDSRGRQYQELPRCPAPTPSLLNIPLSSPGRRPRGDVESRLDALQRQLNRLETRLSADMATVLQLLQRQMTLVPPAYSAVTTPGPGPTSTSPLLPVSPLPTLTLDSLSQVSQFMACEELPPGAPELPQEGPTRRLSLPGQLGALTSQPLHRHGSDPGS
Test: primary screen, population patch clamp on CHO cells stably expressing hERG; higher = less effect of the substance
Hit rate of the full screen: of about 310,000 compounds, about 2,200 (0.71%) showed an effect of 50% or more. The effect is printed as a negative number. The entries come from a sample that favours strong results as a whole.
Known hERG current change (%, negative = inhibition) at 1uM of a selection of compounds
observation type: hERG current change (%, negative = inhibition) at 1uM (%)

compound	numeric readout
Cn1nccc1NC(=O)NC(=O)c1c(Cl)cccc1Cl	8.82
COc1ccc(Cl)cc1NC(=O)[C@@]1(CC(=O)O)CC(/C=C/c2ccccc2)=NO1	12.8
COc1c(C)cc(Br)cc1C(=O)Nc1cccc(-c2nc3ncccc3o2)c1	-7.42
O=C(CCN1C(=O)/C(=C/C=C/c2ccccc2)SC1=S)Nc1nccs1	-3
COc1ccc(/C=C(\NC(=O)c2ccc(Cl)cc2)C(=O)NCCCN2CCOCC2)cc1OC	9.09
CN(CC1CCCN(CCc2ccccc2F)C1)C(=O)c1ccoc1 (stereo not drawn)	-25.9
COc1ccc[nH]c1=O	1.28
COc1ccc(C(=O)NCc2nnc(SCC(=O)NCc3ccco3)o2)cc1OC	14.2
CN(CC1CCCN(CCc2ccc(Cl)cc2)C1)C(=O)C(=O)c1ccco1 (stereo not drawn)	-72.5
Cc1ccccc1CCN1CCCC(CN(C)C(=O)C(=O)c2ccco2)C1 (stereo not drawn)	-17.7
Cc1cccc(C)c1OCC(O)CN.Cl.O (stereo not drawn)	10.5
CSCCC(NC(=O)c1cc(C(C)(C)C)oc1C)C(=O)O (stereo not drawn)	15.6
CCOc1ccccc1OCC(=O)Nc1ccc(S(=O)(=O)Nc2nc(C)cc(C)n2)cc1	0.94
CN(CC1CCCN(CCc2ccc(Cl)cc2)C1)C(=O)c1ccco1 (stereo not drawn)	11.1
CCN(CC)S(=O)(=O)c1ccc(NC(=O)COC(=O)c2c[nH]c(=O)[nH]c2=O)cc1	11.1
COc1cccc(OC)c1C(=O)Nc1ccncc1	17.4
CC(C)CCN1CCN(Cc2cccn2-c2cccnc2)CC1CCO (stereo not drawn)	-9.84
COc1ccc(CCN2CCCC(CN(C)C(=O)c3ccoc3)C2)cc1 (stereo not drawn)	-32.6
COc1ccc(CN(C)CC2CCCN(CCc3ccc(Cl)cc3)C2)cc1OC (stereo not drawn)	-78.2
O=C(Nc1cc(=O)[nH]c2ncnn12)c1ccc(Cl)cc1Cl	-2.66
COc1ccc(CN(C)CC2CCCN(CCc3ccc(F)cc3)C2)cc1OC (stereo not drawn)	-8.47

* * *

Molecular target: human ether-à-go-go-related gene (hERG) potassium channel (human, UniProt Q12809)
Assay: primary screen, population patch clamp on CHO cells stably expressing hERG; higher = less effect of the substance
About 2,200 (0.71%) of roughly 310,000 compounds showed an effect of 50% or more. Effects have a minus sign here. This is one part of a sample in which strong results are shown more often than they occur.
// no strictly below -40% in hERG current change (%, negative = inhibition) at 1uM; yes otherwise

compound	experimental system	answer label
COc1ccc(CCNC(=O)c2cc3c(=O)n4cccc(C)c4nc3n(CC3CCCO3)c2=N)cc1 (stereo not drawn)	human ether-à-go-go-related gene (hERG) potassium channel (human, UniProt Q12809)	no
O=C(c1cncc(Br)c1)N1CCN(c2ccc(N3CCOCC3)nn2)CC1	human ether-à-go-go-related gene (hERG) potassium channel (human, UniProt Q12809)	yes
CC1CCCC(C)N1c1nnc(N)s1 (stereo not drawn)	human ether-à-go-go-related gene (hERG) potassium channel (human, UniProt Q12809)	yes
COc1ccc(CCNC(=O)Cn2c(=O)n(CC3CCCO3)c(=O)c3ccccc32)cc1OC (stereo not drawn)	human ether-à-go-go-related gene (hERG) potassium channel (human, UniProt Q12809)	yes
Cc1ccc(CS(=O)(=O)Cc2ccc(C(=O)N3CCC4(CC3)OCCO4)o2)cc1	human ether-à-go-go-related gene (hERG) potassium channel (human, UniProt Q12809)	yes
O=C(c1cncc(Br)c1)N1CCN(c2ccc([N+](=O)[O-])cc2)CC1	human ether-à-go-go-related gene (hERG) potassium channel (human, UniProt Q12809)	no
N=c1c(C(=O)NCCc2ccccc2)cc2c(=O)n3ccccc3nc2n1CC1CCCO1 (stereo not drawn)	human ether-à-go-go-related gene (hERG) potassium channel (human, UniProt Q12809)	no
Cc1cc(C(=O)N2CCN(c3ccc([N+](=O)[O-])cc3)CC2)no1	human ether-à-go-go-related gene (hERG) potassium channel (human, UniProt Q12809)	yes
COC(=O)c1c(NC(=O)c2nn(C)cc2Cl)sc2c1CCCC2	human ether-à-go-go-related gene (hERG) potassium channel (human, UniProt Q12809)	yes

Cited source: paper PMC4336329
